test description: Selectivity index, ratio of CC50 for mouse NIH/3T3 cells to IC50 for recombinant Trypanosoma cruzi intracellular amastigotes expressing beta-galactosidase infected in mouse NIH/3T3 cells assessed as parasite growth inhibition incubated for 4 days by resorufin-beta-D-galactopiranoside substrate based fluorescence assay
Type: toxicity, cell-based
condition notes: time 4 day, read-out: Ratio CC50/IC50
assay endpoint: selectivity ratio at 96 h
// return a plain number; no unit text

Exercise: Give me measured selectivity ratio at 96 h, please, for this compound: CCCn1c(NC(=O)Cc2ccc(Cl)cc2)nc2ccccc21
Key: 79

* * *

System: Trypanosoma brucei brucei
test description: Antitrypanosomal activity against Trypanosoma brucei brucei Lister 427 assessed as parasite growth inhibition measured after 48 hrs by alamar blue assay
condition notes: Lister 427, 48 h
pIC50: −log10 of the molar value.
Each entry falls into one class according to its pIC50; the ranges are bottom bin: < 5; middle bin: ≥ 5 and < 6; top bin: ≥ 6

Exercise: Band assignment needed for CCCn1c(NC(=O)Cc2cccc(F)c2)nc2ccccc21 please.
Key: middle bin

Exercise: Exam item: assign CCCn1c(NC(=O)Cc2ccc(Br)cc2)nc2ccccc21 to the correct category.
Key: middle bin

Exercise: Lab note: sort CCCn1c(NC(=O)Cc2ccc(Cl)cc2)nc2ccc(C)cc21 into the matching pIC50 band.
Key: bottom bin

Exercise: Input CCCn1c(NC(=O)Cc2ccc(OC(C)=O)cc2)nc2ccccc21 ; output its category
Key: bottom bin

Exercise: Consider CCCn1c(NC(=O)/C=C/c2ccccc2)nc2ccccc21 . To which pIC50 class does it belong?
Key: middle bin

Exercise: Record CCCn1c(NC(=O)CCc2ccccc2)nc2ccccc21 — which class?
Key: middle bin

Exercise: Please classify: N=C(N)c1ccc(/N=N/Nc2ccc(C(=N)N)cc2)cc1 [DIMINAZENE DIACETURATE]
Key: top bin

Exercise: Could you tell me which band N=C(N)c1ccc(OCCCCCOc2ccc(C(=N)N)cc2)cc1 [PENTAMIDINE] belongs to?
Key: top bin

* * *

test description: Selectivity index, ratio of CC50 for human HEK293 cells assessed as reduction in cell viability measured after 48 hrs by resazurin assay to IC50 for Trypanosoma brucei brucei Lister 427 […] assessed as parasite growth inhibition measured after 48 hrs by alamar blue assay
Assay type: toxicity, cell-based
condition notes: read-out: Ratio CC50/IC50
assay endpoint: selectivity ratio at 48 h
Just the number.

Exercise: // Input: CCCn1c(NC(=O)Cc2ccc(Cl)cc2)nc2ccccc21 . Output its selectivity ratio at 48 h only.
Key: 50

* * *

test description: Cytotoxicity against human HEK293 cells assessed as reduction in cell viability measured after 48 hrs by resazurin assay
Assay type: cell-based
assay endpoint: CC50 at 48 h

Exercise: Please look at this compound and report its CC50 at 48 h: CCCn1c(NC(=O)CCc2ccccc2)nc2ccccc21
Key: 14 µM

Exercise: Hello, please tell me recorded CC50 at 48 h for this one: CCCn1c(NC(=O)Cc2cccc(Br)c2)nc2ccccc21
Key: > 83 µM

Exercise: Entry CCCn1c(NC(=O)Cc2ccc(Cl)cc2)nc2ccc(Cl)cc21 needs its CC50 at 48 h filled in; supply it.
Key: > 83 µM

Exercise: Respond only with CC50 at 48 h recorded for CCCn1c(NC(=O)Cc2ccc(Cl)cc2)nc2cccc(C)c21
Key: > 83 µM

Exercise: Input CCCn1c(NC(=O)Cc2ccccc2Br)nc2ccccc21 , output reported CC50 at 48 h.
Key: > 83 µM

Exercise: Look up and report measured CC50 at 48 h for this entry: CCCn1c(NC(=O)Cc2ccc(F)cc2)nc2ccccc21
Key: > 83 µM

Exercise: Find the measured CC50 at 48 h of O=C(Cc1ccc(Cl)cc1)Nc1nc2ccccc2[nH]1 and report it.
Key: > 83 µM

Exercise: Tell me measured CC50 at 48 h for CCCn1c(NC(=O)Cc2ccc3ccccc3c2)nc2ccccc21 please.
Key: > 83 µM

Exercise: Supply measured CC50 at 48 h of C=CCc1c(NC(=O)Cc2ccc(Cl)cc2)ncc2ccccc12 in your reply.
Key: > 83 µM

Exercise: Give the reported value of CC50 at 48 h for this record: CCn1c(NC(=O)Cc2ccc(Cl)cc2)nc2ccccc21
Key: > 83 µM

Exercise: Please list CC50 at 48 h recorded for the compound CCCn1c(NC(=O)Cc2cccc3ccccc23)nc2ccccc21
Key: 10 µM

Exercise: Answer with the recorded CC50 at 48 h for the compound listed here: CCCn1c(NC(=O)Cc2ccc(-c3ccccc3)cc2)nc2ccccc21
Key: > 83 µM

* * *

test description: Cytotoxicity against rat H9c2 cells assessed as reduction in cell viability
Format: cell-based
assay endpoint: CC50 (µM)
Reply with just the number (in µM).

Exercise: Given CCCn1c(NC(=O)Cc2ccc(Cl)cc2)nc2ccc(F)cc21 , respond with its CC50.
Key: 25

Exercise: Return reported CC50. Input compound: O=C(Cn1ccnc1[N+](=O)[O-])NCc1ccccc1
Key: 31.6

Exercise: Output CC50 of CCCn1c(NC(=O)Cc2ccccc2Cl)nc2ccccc21
Key: 25

Exercise: Provide measured CC50 value, entry: CCCCCCCCC(=O)Nc1nc2ccccc2n1CCC
Key: 20

Exercise: Please report CC50 for the following compound: CCCCn1c(NC(=O)Cc2ccc(Cl)cc2)nc2ccccc21
Key: 13

* * *

Record form. Attribute: logP. Fill in for each entry.
test description: Lipophilicity, logP of the compound
Format: physicochemical
condition notes: octanol/water
Answer with a number only.

Exercise: Give the reported value of logP for this record: CCCn1c(NC(=O)Cc2ccccc2)nc2ccccc21
Key: 4.1

Exercise: Check the records and state logP for CCCn1c(NC(=O)Cc2ccc(OC)cc2)nc2ccccc21
Key: 4

Exercise: Give reported logP value for CCCCCn1c(NC(=O)Cc2ccc(Cl)cc2)nc2ccccc21
Key: 5.6

Exercise: Indicate its recorded logP; the compound in question is CCCn1c(NC(=O)Cc2ccccc2F)nc2ccccc21
Key: 4.3

Exercise: Item CCCn1c(C(=O)NCc2ccc(Cl)cc2)nc2ccccc21 : provide logP
Key: 4.1

Exercise: In one line, give reported logP of the entry CCn1c(NC(=O)Cc2ccc(Cl)cc2)nc2ccccc21 .
Key: 4.2

* * *

For each record, write down the corresponding CC50.
test description: Cytotoxicity against rat H9c2 cells assessed as reduction in cell viability
Assay type: cell-based
Write the value in µM as a bare number.

Exercise: Return the recorded CC50 value; entry: CCn1c(NC(=O)Cc2ccc(Cl)cc2)nc2ccccc21
Key: 40

Exercise: Fill in reported CC50 for this entry: CCCn1c(NC(=O)/C=C/c2ccccc2)nc2ccccc21
Key: 20

Exercise: Provide measured CC50 value, entry: CCCn1c(NC(=O)CCCc2ccccc2)nc2ccccc21
Key: 16

* * *

Would you kindly list logP for each of these compounds?
test description: Lipophilicity, logP of the compound
Type: physicochemical
condition notes: octanol/water
The answer should be written as a number, with no unit following it.

Exercise: Provide one value: measured logP of CCCCn1c(NC(=O)Cc2ccc(Cl)cc2)nc2ccccc21
Key: 5.2

Exercise: Consider the compound CCCn1c(NC(=O)Cc2ccc(Cl)cc2)nc2cccc(Br)c21 and give its recorded logP.
Key: 5.5

Exercise: Write down logP measured for item CCCn1c(NC(=O)Cc2ccc(Cl)cc2)nc2cc(Br)ccc21
Key: 5.5

Exercise: Identify the reported logP for the following entry. CCCn1c(NC(=O)Cc2ccc(Cl)cc2)nc2ccc(Cl)cc21
Key: 5.3

Exercise: Supply reported logP belonging to this compound: CCCn1c(NC(=O)Cc2ccc3ccccc3c2)nc2ccccc21
Key: 5.1

Exercise: Assign logP to the following record: CCCn1c(NC(=O)c2ccccc2)nc2ccccc21
Key: 4.1

* * *

Test system: Trypanosoma brucei brucei
test description: Antitrypanosomal activity against Trypanosoma brucei brucei Lister 427 assessed as parasite growth inhibition measured after 48 hrs by alamar blue assay
condition notes: Lister 427, 48 h
Doc: threshold 3 µM (exclusive). Items with IC50 beneath it return true (1); others return false (0).

Exercise: Please check: IC50 for CCCn1c(NC(=O)Cc2ccccc2F)nc2ccccc21 , strictly under 3 µM or not?
Key: false (0)

Exercise: Is 3 µM strictly greater than the compound's reported IC50? compound: C=CCc1c(NC(=O)Cc2ccc(Cl)cc2)ncc2ccccc12
Key: false (0)

Exercise: Is IC50 strictly under 3 µM for the entry CCCn1c(NC(=O)Cc2cccc(C)c2)nc2ccccc21 ?
Key: false (0)

Exercise: Consider CCCn1c(NC(=O)CCCc2ccccc2)nc2ccccc21 . Does its IC50 lie strictly below 3 µM?
Key: true (1)

Exercise: Input CCCn1c(NC(=O)Nc2ccc(Cl)cc2)nc2ccccc21 ; condition: IC50 strictly below 3 µM. Does it hold?
Key: false (0)

Exercise: For CCCn1c(NC(=O)Cc2ccc(Cl)cc2)nc2cccc(Br)c21 , is the recorded IC50 below the cut-off of 3 µM?
Key: true (1)

Exercise: In the record for CCCn1c(NC(=O)Cc2ccc(OC)cc2)nc2ccccc21 , is IC50 less than 3 µM?
Key: false (0)

Exercise: # strict comparison: is reported IC50 < 3 µM? input = Cn1c(NC(=O)Cc2ccc(Cl)cc2)nc2ccccc21
Key: false (0)

Exercise: is_below(IC50, 3 µM) for CCCn1c(NC(=O)Cc2ccccc2OC)nc2ccccc21 ?
Key: false (0)

Exercise: Report whether reported IC50 is lower than 3 µM (strictly) for CCCCCCCCC(=O)Nc1nc2ccccc2n1CCC
Key: false (0)

Exercise: Does CCCCn1c(NC(=O)Cc2ccc(Cl)cc2)nc2ccccc21 have IC50 strictly under 3 µM?
Key: false (0)

Exercise: Decide: IC50 of CCCn1c(NC(=O)Cc2ccccc2)nc2ccccc21 strictly below 3 µM?
Key: false (0)

Exercise: is_below(IC50, 3 µM) for CCCn1c(NC(=O)Cc2ccc(Cl)cc2)nc2ccc(Cl)cc21 ?
Key: true (1)

Exercise: Hello, is IC50 of the following compound strictly smaller than 3 µM? CCCn1c(NC(=O)Cc2cccc(OC)c2)nc2ccccc21
Key: false (0)

Exercise: Is IC50 strictly under 3 µM for the entry CCCn1c(NC(=O)Cc2ccc(OC(F)(F)F)cc2)nc2ccccc21 ?
Key: false (0)

Exercise: Determine whether this compound shows IC50 lower than 3 µM (ties excluded): CCCn1c(NC(=O)Cc2cccc(Br)c2)nc2ccccc21
Key: true (1)

Exercise: Please determine if CCCn1c(NC(=O)Cc2ccc(O)cc2)nc2ccccc21 is below 3 µM in terms of IC50.
Key: false (0)

Exercise: Please indicate whether the reported IC50 of CCn1c(NC(=O)Cc2ccc(Cl)cc2)nc2ccccc21 is strictly below 3 µM.
Key: false (0)

Exercise: Given CCCn1c(NC(=O)Cc2ccc(Cl)cc2)nc2c(Br)cccc21 , is recorded IC50 strictly lower than 3 µM?
Key: false (0)

Exercise: Quick check: IC50 of CCCCCn1c(NC(=O)Cc2ccc(Cl)cc2)nc2ccccc21 under 3 µM?
Key: false (0)

Exercise: I'd appreciate it if you could check whether CCCn1c(NC(=O)Cc2ccccc2C)nc2ccccc21 has IC50 smaller than 3 µM.
Key: true (1)

Exercise: Hello, I'm reviewing records and need to know if IC50 of CCCn1c(NC(=O)Cc2ccc(Cl)cc2)nc2cc(Br)ccc21 is below 3 µM. Could you check?
Key: false (0)

Exercise: For CCCn1c(NC(=O)Cc2ccc(F)cc2)nc2ccccc21 , is the recorded IC50 below the cut-off of 3 µM?
Key: true (1)

Exercise: I'd appreciate it if you could check whether COc1ccc(C[C@H](N)C(=O)N[C@H]2[C@@H](O)[C@H](n3cnc4c(N(C)C)ncnc43)O[C@@H]2CO)cc1 has IC50 smaller than 3 µM.
Key: true (1)

Exercise: Bench note: check whether CCCn1c(NC(=O)Cc2cccc(Cl)c2)nc2ccccc21 shows IC50 below 3 µM
Key: false (0)

Exercise: IC50 under 3 µM? Item: CCCn1c(NC(=O)Cc2ccc(Cl)nc2)nc2ccccc21
Key: false (0)
